Can you tell me Fold increase for EAAT2 at indicated concentration (maximum activity) for the items I'm about to list?
Tested on: human EAAT2
TEST NAME: EAAT2 protein levels in PA-EAAT2 cells by Western blot
Type: cell-based
APPLIED CONDITIONS: PA-EAAT2 cells, 24 hr, EAAT2 protein relative to DMSO
Counter-ions that a name gives are not always drawn.
Answers are plain numbers, in fold.

# example entries with known answers
O=C1CCCN1CCn1nc(-c2ccccn2)ccc1=O [Compound 133] : 1.9
Cc1cc(=O)n(CCN(C)C)nc1-c1ccccn1 [Compound 196, hydrochloride] : 4.2
Cc1cc(-c2ccccn2)nn(CCN(C)C)c1=O [Compound 195, hydrochloride] : 2.5
Cn1ccnc1Cn1nc(-c2ccccn2)ccc1=O [Compound 201] : 2.5
CN(C)CCn1cc(-c2ccccn2)ccc1=O [Compound 213, hydrochloride] : 2.3
CN(C)CCCn1nc(-c2ccccn2)ccc1=O [Compound 166, hydrochloride] : 2.0
COc1ccccc1-c1ccc(=O)n(CCN(C)C)n1 [Compound 206, hydrochloride] : 2.4
CN(C)CCn1cc(-c2ccccn2)ncc1=O [Compound 214, hydrochloride] : 1.5
O=c1ccc(-c2ccccn2)nn1CCN1CCOCC1 [Compound 126, hydrochloride] : 2.2
CN(CCn1nc(-c2ccccn2)ccc1=O)c1ccccc1 [Compound 110] : 2.3

For every record below, what is its Fold increase for EAAT2 at indicated concentration (maximum activity)?
1. COc1cccc(-c2ccc(=O)n(CCN(C)C)n2)c1 [Compound 207, hydrochloride]
2. COCCn1nc(-c2ccccn2)ccc1=O [Compound 172]
3. COc1ccc(-c2ccc(=O)n(CCN(C)C)n2)cc1 [Compound 208, hydrochloride]
4. CC(c1ccccn1)n1nc(-c2ccccn2)ccc1=O (stereo not shown) [Compound 198]
5. CNCCn1nc(-c2ccccn2)ccc1=O [Compound 101, hydrochloride]
6. CN(C)CCOc1ccccc1NC(=O)Cn1nc(-c2ccccn2)ccc1=O [Compound 203]
7. CNC(=O)CCn1nc(-c2ccccn2)ccc1=O [Compound 123]

Result:
1. 3.5
2. 2.9
3. 1.7
4. 2.0
5. 2.6
6. 2.0
7. 2.5

Provide Fold increase for EAAT2 at indicated concentration (maximum activity) for all items below, preserving their order.
1. O=c1ccc(-c2ccccn2)nn1Cc1ncco1 [Compound 146]
2. NCCn1nc(-c2ccccn2)ccc1=O [Compound 102, hydrochloride]

Result:
2.6
2.8
